Hello, the source for this data is the supplement of paper PMC12494721, in case you need it.

# Tested on: Klebsiella aerogenes DSM 30053
# assay: fold change of Histamine concentration vs plate DMSO controls (fold change (ratio)); higher = more amine produced, active = hit call of the paper (significant change in both replicates, either direction)
# run.parameters: incubation time: 27 h, anaerobic, 37 °C
Counter-ions that a name gives are not always drawn.
Quick rule for you: fold change of Histamine concentration at 1 or higher means class 1, lower means class 0.

NC(=O)NS(=O)(=O)c1ccc(N)cc1 [Sulfacarbamide] (20 µM)	class 1
CCOC(=O)C1=C(C)NC(C)=C(C(=O)OC)C1c1cccc(Cl)c1Cl (stereo not given) [Felodipine] (20 µM)	class 0
CC(C)C[C@H](NC(=O)[C@@H](O)[C@H](N)Cc1ccccc1)C(=O)O [Ubenimex] (20 µM)	class 0
CC(C)OC(=O)C(C)(C)Oc1ccc(C(=O)c2ccc(Cl)cc2)cc1 [Fenofibrate] (20 µM)	class 0
CC(C)c1ccc2oc3nc(N)c(C(=O)O)cc3c(=O)c2c1 [Amlexanox] (20 µM)	class 0
COc1cccc(OC)c1C(=O)N[C@@H]1C(=O)N2[C@@H]1SC(C)(C)[C@@H]2C(=O)O [Methicillin sodium] (20 µM)	class 1
CCCOc1ccc(C(=O)OCCN(CC)CC)cc1N [Proparacaine hydrochloride] (20 µM)	class 0

* * *

# Tested on: Clostridium sporogenes DSM 1664
# assay: fold change of Tryptamine concentration vs plate DMSO controls (fold change (ratio)); higher = more amine produced, active = hit call of the paper (significant change in both replicates, either direction)
# run.parameters: incubation time: 27 h, anaerobic, 37 °C
Structures can show the parent of a compound that is named as a salt.
readout.kind: fold change of Tryptamine concentration

CCOC(=O)[C@H](CCc1ccccc1)N[C@@H](C)C(=O)N1[C@H](C(=O)O)C[C@@H]2CCC[C@@H]21 [Ramipril] (20 µM)	0.963
CCCC1C(=O)N2C(N(C)C)=Nc3ccc(C)cc3N2C1=O (stereo not drawn) [Azapropazone] (20 µM)	1.09
CC1=C(C(=O)O)N2C(=O)[C@@H](NC(=O)[C@H](N)c3ccccc3)[C@H]2SC1 [Cephalexin monohydrate] (20 µM)	1.17
COc1ccccc1N1CCN(CC(O)COc2cccc3ccccc23)CC1 (stereo not drawn) [Naftopidil dihydrochloride] (20 µM)	1.02
CC(C)(C)NCC(O)c1ccc(O)c(CO)c1 (stereo not drawn) [Salbutamol] (20 µM)	0.999
CCOC(=O)[C@H](CCc1ccccc1)N[C@@H](C)C(=O)N1C(=O)N(C)C[C@H]1C(=O)O [Imidapril hydrochloride] (20 µM)	0.931
N[C@@H](CSCCCO)C(=O)O [Fudosteine] (20 µM)	0.939
COc1ccc(-c2noc(CC(=O)O)c2-c2ccc(OC)cc2)cc1 [Mofezolac] (20 µM)	0.988

* * *

# Tested on: Escherichia coli IAI1
# assay: fold change of Cadaverine concentration vs plate DMSO controls (fold change (ratio)); higher = more amine produced, active = hit call of the paper (significant change in both replicates, either direction);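 for the amine columns active = adjusted P below 0.05 in both replicates with a change the same way and a mean fold change under 0.8 or over 1.25; inactive = the rest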
# run.parameters: incubation time: 27 h, anaerobic, 37 °C
Structures can show the parent of a compound that is named as a salt.
Labels: active, inactive

Cc1ccsc1C(=CCCN1CCC[C@@H](C(=O)O)C1)c1sccc1C [Tiagabine hydrochloride] (20 µM)	inactive
CC(C)Cc1ccc(CC(=O)O)cc1 [Ibufenac] (20 µM)	inactive
COc1c(N2C[C@@H]3CCCN[C@@H]3C2)c(F)cc2c(=O)c(C(=O)O)cn(C3CC3)c12 [Moxifloxacin] (20 µM)	active
Cc1onc(-c2ccccc2)c1-c1ccc(S(N)(=O)=O)cc1 [Valdecoxib] (20 µM)	inactive
CC1COc2ccccc2N1C(=O)C(Cl)Cl (stereo not given) (20 µM)	inactive

* * *

Below, each entry is listed alongside its reported growth.
# System: Escherichia coli IAI1
# assay: growth (OD595) fold change vs plate DMSO controls (fold change (ratio)); higher = more growth
# run.parameters: incubation time: 27 h, anaerobic, 37 °C
Where a name gives a salt, the structure may show the parent alone.
readout.kind: growth

Cc1ccc(-c2cc(C(F)(F)F)nn2-c2ccc(S(N)(=O)=O)cc2)cc1 [Celecoxib] (20 µM)	1.03
CC[C@H]1OC(=O)[C@H](C)[C@@H](O[C@H]2C[C@@](C)(OC)[C@@H](O)[C@H](C)O2)[C@H](C)[C@@H](O[C@@H]2O[C@H](C)C[C@H](N(C)C)[C@H]2O)[C@](C)(OC)C[C@@H](C)C(=O)[C@H](C)[C@@H](O)[C@]1(C)O [Clarithromycin] (20 µM)	0.665
CC(C(O)c1ccc(O)cc1)N1CCC(Cc2ccccc2)CC1 (stereo not drawn) [Ifenprodil tartrate] (20 µM)	1.12

* * *

# System: Ruminococcus gnavus DSM 108212
# assay: fold change of Tryptamine concentration vs plate DMSO controls (fold change (ratio)); higher = more amine produced, active = hit call of the paper (significant change in both replicates, either direction)
# run.parameters: incubation time: 27 h, anaerobic, 37 °C
Structures can show the parent of a compound that is named as a salt.
Below, each entry is listed alongside its reported fold change of Tryptamine concentration.
readout.kind: fold change of Tryptamine concentration

CC(=O)Oc1ccc(C(=C2CCCCC2)c2ccc(OC(C)=O)cc2)cc1 [Cyclofenil] (20 µM)	0.953
COc1ccc(C(=O)c2ccccc2O)c(O)c1 [Dioxybenzone] (20 µM)	0.977
NCCc1c[nH]cn1 [Histamine dihydrochloride] (20 µM)	1.06
COc1cc([C@@H]2c3cc4c(cc3[C@@H](O[C@@H]3O[C@@H]5CO[C@@H](C)O[C@H]5[C@H](O)[C@H]3O)[C@H]3COC(=O)[C@H]23)OCO4)cc(OC)c1O [Etoposide] (20 µM)	0.248
CCCCC1C(=O)N(c2ccccc2)N(c2ccccc2)C1=O [Phenylbutazone] (20 µM)	0.969
CN(CCOc1ccc(CC2SC(=O)NC2=O)cc1)c1ccccn1 (configuration not stated) [Rosiglitazone hydrochloride] (20 µM)	1.08
Cc1cc2nc3c(=O)[nH]c(=O)nc-3n(C[C@H](O)[C@H](O)[C@H](O)CO)c2cc1C [Riboflavine] (20 µM)	1.08

* * *

# Test system: Escherichia coli IAI1
# assay: fold change of Cadaverine concentration vs plate DMSO controls (fold change (ratio)); higher = more amine produced, active = hit call of the paper (significant change in both replicates, either direction)
# run.parameters: incubation time: 27 h, anaerobic, 37 °C
Structures can show the parent of a compound that is named as a salt.
Below, each entry is listed alongside its reported fold change of Cadaverine concentration.
readout.kind: fold change of Cadaverine concentration

CC(NCCc1ccc(O)cc1)C(O)c1ccc(O)cc1 (stereo unspecified) [Ritodrine hydrochloride] (20 µM)	1.01
N/C(=N\C(=O)c1nc(Cl)c(N)nc1N)NCc1ccccc1 [Benzamil hydrochloride] (20 µM)	1.48
CCc1c(C)[nH]c2c1C(=O)C(CN1CCOCC1)CC2 (stereo unspecified) [Molindone hydrochloride] (20 µM)	0.906
Cc1ncc([N+](=O)[O-])n1CC(O)CCl (stereo unspecified) [Ornidazole] (20 µM)	0.962
C#C[C@]1(O)CC[C@H]2[C@@H]3CCc4cc(O)ccc4[C@H]3CC[C@@]21C [Ethinylestradiol] (20 µM)	1.01
COc1ccnc(C[S+]([O-])c2nc3cc(OC(F)F)ccc3[nH]2)c1OC (stereo unspecified) [Pantoprazole sodium] (20 µM)	0.98
C[C@]12CCC(=O)C=C1CC[C@@H]1[C@@H]2[C@@H](O)C[C@@]2(C)[C@H]1CC[C@]2(O)C(=O)CO [Hydrocortisone] (20 µM)	1.03
Nc1cc(C(Cl)=C(Cl)Cl)c(S(N)(=O)=O)cc1S(N)(=O)=O [Clorsulon] (20 µM)	0.981
CCN1CCC[C@H]1CNC(=O)c1c(O)c(Cl)cc(Cl)c1OC [Raclopride] (20 µM)	0.944
C#C[C@]1(O)CC[C@H]2[C@@H]3CCC4=CC(=O)CC[C@@H]4[C@H]3CC[C@@]21C [Norethindrone] (20 µM)	0.98
CC(C(=O)O)c1ccc(C(=O)c2ccccc2)s1 (stereo unspecified) [Tiaprofenic acid] (20 µM)	0.966
NC[C@H]1O[C@H](O[C@H]2[C@H](O)[C@@H](O[C@H]3O[C@H](CO)[C@@H](O)[C@H](N)[C@H]3O)[C@H](N)C[C@@H]2N)[C@H](N)C[C@@H]1O [Tobramycin] (20 µM)	0.889
NC(N)=Nc1nc(CSCC/C(N)=N/S(N)(=O)=O)cs1 [Famotidine] (20 µM)	0.975
CN(C)CCCN1c2ccccc2Sc2ccc(C(F)(F)F)cc21 [Triflupromazine hydrochloride] (20 µM)	1.08
CN1CCC(=C2c3ccccc3Sc3ccccc32)CC1 [Pimethixene maleate] (20 µM)	1.02
CCN(CC)CCOc1ccc(C(=C(Cl)c2ccccc2)c2ccccc2)cc1 [(Z,E) Clomiphene citrate] (20 µM)	0.955

* * *

# System: Clostridium sporogenes DSM 1664
# assay: growth (OD595) fold change vs plate DMSO controls (fold change (ratio)); higher = more growth
# run.parameters: incubation time: 27 h, anaerobic, 37 °C
Structures can show the parent of a compound that is named as a salt.
Below, each entry is listed alongside its reported growth.
readout.kind: growth

CCC[C@@H]1C[C@@H](C(=O)N[C@@H]([C@H]2O[C@H](SC)[C@H](O)[C@@H](O)[C@H]2O)[C@H](C)Cl)N(C)C1 [Clindamycin hydrochloride] (20 µM)	0.899
CC(C(=O)O)c1ccc2c(c1)CC(=O)c1ccccc1S2 (centres undefined) [Zaltoprofen] (20 µM)	0.876
COc1cc(Cc2cnc(N)nc2N)cc(OC)c1OC [Trimethoprim] (20 µM)	1.03
NS(=O)(=O)c1cc(C(=O)NN2C[C@@H]3[C@H]4CC[C@H](C4)[C@@H]3C2)ccc1Cl [Tripamide] (20 µM)	0.981
